target: Jarid1A (Homo sapiens, UniProt P29375)
Sequence (P29375 1-1090): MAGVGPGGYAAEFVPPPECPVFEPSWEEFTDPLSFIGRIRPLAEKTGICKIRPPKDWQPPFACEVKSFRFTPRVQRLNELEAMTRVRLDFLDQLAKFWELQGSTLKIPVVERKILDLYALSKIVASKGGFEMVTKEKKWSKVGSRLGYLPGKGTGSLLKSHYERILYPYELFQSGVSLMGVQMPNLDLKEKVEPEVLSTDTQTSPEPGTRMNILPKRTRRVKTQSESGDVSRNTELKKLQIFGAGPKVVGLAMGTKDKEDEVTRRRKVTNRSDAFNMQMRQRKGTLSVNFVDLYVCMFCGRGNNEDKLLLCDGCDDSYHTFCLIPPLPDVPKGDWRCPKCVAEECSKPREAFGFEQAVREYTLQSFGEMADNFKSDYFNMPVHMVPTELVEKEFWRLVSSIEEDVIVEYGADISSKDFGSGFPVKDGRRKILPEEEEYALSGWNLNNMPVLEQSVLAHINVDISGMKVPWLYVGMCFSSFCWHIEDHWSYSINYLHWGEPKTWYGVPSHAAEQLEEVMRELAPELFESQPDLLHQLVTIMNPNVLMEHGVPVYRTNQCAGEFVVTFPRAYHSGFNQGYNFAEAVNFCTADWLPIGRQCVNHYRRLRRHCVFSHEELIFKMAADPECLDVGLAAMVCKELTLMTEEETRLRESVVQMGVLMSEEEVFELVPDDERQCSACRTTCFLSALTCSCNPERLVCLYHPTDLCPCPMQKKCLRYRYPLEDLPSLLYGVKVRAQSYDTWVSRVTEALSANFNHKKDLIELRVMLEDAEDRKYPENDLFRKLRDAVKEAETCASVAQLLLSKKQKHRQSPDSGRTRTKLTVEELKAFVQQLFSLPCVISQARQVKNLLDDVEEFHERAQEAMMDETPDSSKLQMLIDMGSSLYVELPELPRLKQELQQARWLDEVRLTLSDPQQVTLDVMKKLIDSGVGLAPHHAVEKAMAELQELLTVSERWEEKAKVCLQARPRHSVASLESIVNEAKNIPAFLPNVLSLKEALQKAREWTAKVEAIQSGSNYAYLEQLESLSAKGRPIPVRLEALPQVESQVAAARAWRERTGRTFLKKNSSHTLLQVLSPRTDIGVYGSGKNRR
measured.endpoint: IC50

>>> measurement("Oc1nc(Oc2cnn(Cc3ccc(F)cc3)c2)nc2cnccc12 [Example 86]")
"≤ 100 nM"
>>> measurement("Oc1nc(OC2Cc3ccccc3C2)nc2cnccc12 [Example 189]")
"100 to 1000 nM"
>>> measurement("N#CCC(=O)N1CC[C@@H](n2cc(Oc3nc(O)c4ccncc4n3)cn2)C1 [Example 130]")
"≤ 100 nM"

Lab note: next compound to report on.
Input: Look at this compound and give its reported IC50. C[C@@H](c1ccccc1F)n1cc(Oc2nc(O)c3ccncc3n2)cn1 [Example 120]
Output: ≤ 100 nM

Every entry's value here was drawn from patent US10526327B2.
